molecular target: mortalin-NBD (Homo sapiens, UniProt P38646); assay: ITC binding of modified ADP analogues to mortalin-NBD
Sequence (P38646 52-431): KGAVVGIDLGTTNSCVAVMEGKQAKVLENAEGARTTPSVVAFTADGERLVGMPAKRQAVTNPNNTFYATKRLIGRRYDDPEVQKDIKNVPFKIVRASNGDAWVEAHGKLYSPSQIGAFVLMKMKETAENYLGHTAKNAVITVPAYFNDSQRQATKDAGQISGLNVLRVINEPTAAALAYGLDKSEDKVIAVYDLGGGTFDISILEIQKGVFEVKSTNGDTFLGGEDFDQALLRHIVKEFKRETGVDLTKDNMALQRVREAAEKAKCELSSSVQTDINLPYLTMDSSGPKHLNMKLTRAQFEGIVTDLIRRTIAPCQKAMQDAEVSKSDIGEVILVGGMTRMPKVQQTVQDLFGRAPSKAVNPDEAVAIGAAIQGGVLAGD
Kindly supply the reported pKd values for the records listed here.
pKd is defined as minus the log10 of a concentration measured in mol/L.

## Task GET /values?readout=pKd&item= CSc1nc(N)c2ncn([C@@H]3O[C@H](COP(=O)(O)OP(=O)(O)O)[C@@H](O)[C@H]3O)c2n1 [2-MeS ADP, 2-methylthio-adenosine-5’-diphosphate]
## Result 5.01

## Task GET /values?readout=pKd&item= O=P(O)(O)OP(=O)(O)OC[C@H]1O[C@@H](n2cnc3c(NCCc4ccccc4)ncnc32)[C@H](O)[C@@H]1O
## Result 5.38

## Task GET /values?readout=pKd&item= O=P(O)(O)OP(=O)(O)OC[C@H]1O[C@@H](n2cnc3c(NCc4ccco4)ncnc32)[C@H](O)[C@@H]1O [6-Fu ADP, N6-furfuryladenosine-5’-diphosphate]
## Result 5.23
